// data source = paper PMC10673615

TARGET_OR_TEST_SYSTEM: eeAChE (Electrophorus electricus)
Construct: catalogue number not given
Sequence (O42275 24-633): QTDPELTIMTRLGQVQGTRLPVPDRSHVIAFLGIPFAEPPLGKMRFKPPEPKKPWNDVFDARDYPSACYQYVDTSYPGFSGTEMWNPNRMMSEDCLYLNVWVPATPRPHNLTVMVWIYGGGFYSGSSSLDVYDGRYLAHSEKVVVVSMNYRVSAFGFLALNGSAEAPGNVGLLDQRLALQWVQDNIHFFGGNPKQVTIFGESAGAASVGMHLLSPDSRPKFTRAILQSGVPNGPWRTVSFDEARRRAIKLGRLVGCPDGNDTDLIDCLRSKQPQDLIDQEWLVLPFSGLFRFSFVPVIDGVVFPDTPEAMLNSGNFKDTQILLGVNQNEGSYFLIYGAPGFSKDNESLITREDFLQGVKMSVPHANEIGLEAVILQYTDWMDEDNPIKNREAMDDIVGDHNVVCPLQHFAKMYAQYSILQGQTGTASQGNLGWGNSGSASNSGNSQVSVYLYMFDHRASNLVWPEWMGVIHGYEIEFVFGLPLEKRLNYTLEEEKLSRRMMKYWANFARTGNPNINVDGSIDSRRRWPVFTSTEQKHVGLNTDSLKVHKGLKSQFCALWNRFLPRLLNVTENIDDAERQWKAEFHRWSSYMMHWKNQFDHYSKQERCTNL
MEASUREMENT_PROTOCOL: Ellman cholinesterase inhibitory assay, eeAChE screening
Format: biochemical
TEST_SETTINGS: compound 100 µM; substrate 3 mM
Procedure: Firstly, the inhibitory activity of the quercetin-1,2,3-triazole hybrids I–IV was screened in vitro on eeAChE and eqBuChE at a concentration of 100 μM (these enzymes are considered as models of the human isoform). The ChE inhibitory activity of all compounds was evaluated using the method of Ellman. […]
Tag: True if measured inhibition at 100 µM is not below 8%, False if it is.

Reference set, count: 5
COc1cc(OC)c2c(=O)c(OCCCCn3cc(C4CC4)nn3)c(-c3ccc(OC)c(OC)c3)oc2c1 [IIb] : False
O=c1c(OCCCCn2cc(C3CC3)nn2)c(-c2ccc(O)c(O)c2)oc2cc(O)cc(O)c12 [IVb] : False
O=c1c(OCCCCn2cc(C3(O)CCCC3)nn2)c(-c2ccc(O)c(O)c2)oc2cc(O)cc(O)c12 [IVc] : True
O=c1c(OCCCCn2cc(C3(O)CCCC3)nn2)c(-c2ccc(OCc3ccccc3)c(OCc3ccccc3)c2)oc2cc(OCc3ccccc3)cc(OCc3ccccc3)c12 [IIIc] : True
COc1cc(OC)c2c(=O)c(OCCCCn3cc(COc4cc(C)ccc4C(C)C)nn3)c(-c3ccc(OC)c(OC)c3)oc2c1 [IIe] : False

Test whether the compound Cc1ccc(C(C)C)c(OCc2cn(CCCCOc3c(-c4ccc(O)c(O)c4)oc4cc(O)cc(O)c4c3=O)nn2)c1 [IVe] records inhibition at 100 µM of 8% or higher.
True

Would you say COc1cc(OC)c2c(=O)c(OCCCCn3cc(C(C)(C)O)nn3)c(-c3ccc(OC)c(OC)c3)oc2c1 [IId] shows inhibition at 100 µM at minimum 8%?
False

Hi, just wondering whether O=c1c(OCCCCn2cc(-c3ccccc3)nn2)c(-c2ccc(O)c(O)c2)oc2cc(O)cc(O)c12 [IVa] shows inhibition at 100 µM of 8% or higher.
False

Confirm if inhibition at 100 µM reported for the compound COc1cc(OC)c2c(=O)c(OCCCCn3cc(-c4ccccc4)nn3)c(-c3ccc(OC)c(OC)c3)oc2c1 [IIa] is 8% or above.
False

Check this compound for inhibition at 100 µM at or above 8%: CCCc1cn(CCCCOc2c(-c3ccc(OC)c(OC)c3)oc3cc(OC)cc(OC)c3c2=O)nn1 [IIh]
True

Say whether COc1cc(OC)c2c(=O)c(OCc3cn(Cc4ccccc4)nn3)c(-c3ccc(OC)c(OC)c3)oc2c1 [Ia] shows inhibition at 100 µM of 8% or more.
False

# check: inhibition at 100 µM of O=C1C(=O)N(Cc2cn(CCCCOc3c(-c4ccc(OCc5ccccc5)c(OCc5ccccc5)c4)oc4cc(OCc5ccccc5)cc(OCc5ccccc5)c4c3=O)nn2)c2ccccc21 [IIIf] is greater than or equal to 8%
False

Assess whether reported inhibition at 100 µM for COc1cc(OC)c2c(=O)c(OCCCCn3cc(CN4C(=O)C(=O)c5ccccc54)nn3)c(-c3ccc(OC)c(OC)c3)oc2c1 [IIf] sits at 8% or higher.
True

State whether the measured inhibition at 100 µM reaches 8%, counting equality as reaching it, for COc1cc(OC)c2c(=O)c(OCc3cn(Cc4cccc(Cl)c4)nn3)c(-c3ccc(OC)c(OC)c3)oc2c1 [Ib]
False

Would you say COc1cc(OC)c2c(=O)c(OCCCCn3cc(C4(O)CCCC4)nn3)c(-c3ccc(OC)c(OC)c3)oc2c1 [IIc] shows inhibition at 100 µM at minimum 8%?
False

Textbook exercise: given the entry CC(C)(O)c1cn(CCCCOc2c(-c3ccc(O)c(O)c3)oc3cc(O)cc(O)c3c2=O)nn1 [IVd] , state whether its inhibition at 100 µM is greater than or equal to 8%.
False

# bool: inhibition at 100 µM of COc1cc(OC)c2c(=O)c(OCCCCn3cc(C(C)(C)N)nn3)c(-c3ccc(OC)c(OC)c3)oc2c1 [IIi] >= 8%
False

Given the entry CC(C)(O)c1cn(CCCCOc2c(-c3ccc(OCc4ccccc4)c(OCc4ccccc4)c3)oc3cc(OCc4ccccc4)cc(OCc4ccccc4)c3c2=O)nn1 [IIId] , answer whether its inhibition at 100 µM meets or surpasses 8%.
True

Threshold query (inhibition at 100 µM >= 8%) on O=c1c(OCCCCn2cc(-c3ccccc3)nn2)c(-c2ccc(OCc3ccccc3)c(OCc3ccccc3)c2)oc2cc(OCc3ccccc3)cc(OCc3ccccc3)c12 [IIIa]
True

Does the reported inhibition at 100 µM for COc1cc(OC)c2c(=O)c(OCCCCn3cc(CO)nn3)c(-c3ccc(OC)c(OC)c3)oc2c1 [IIg] fall at or above the 8% mark?
False
